# Tested Target: T1, human chemokine (C-C motif) receptor 8 (CCR8) (human, UniProt P51685 1-355)
# T1 construct: On human peripheral blood lymphocytes / PBMC (native) or on human CCR8 GFP-transfected Ba/F3 cells; also called hCCR8; human CCR8
# T1 sequence (P51685 whole entry): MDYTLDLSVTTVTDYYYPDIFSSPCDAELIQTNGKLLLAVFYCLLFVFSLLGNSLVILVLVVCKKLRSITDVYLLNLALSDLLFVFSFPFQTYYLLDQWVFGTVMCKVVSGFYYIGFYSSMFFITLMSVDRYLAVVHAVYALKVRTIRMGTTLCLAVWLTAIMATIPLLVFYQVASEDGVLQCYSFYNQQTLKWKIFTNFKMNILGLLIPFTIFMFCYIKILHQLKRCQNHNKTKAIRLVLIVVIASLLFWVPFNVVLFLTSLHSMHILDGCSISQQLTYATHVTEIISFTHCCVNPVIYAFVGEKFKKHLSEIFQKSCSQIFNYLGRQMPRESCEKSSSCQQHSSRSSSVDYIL
# Method Description: flow cytometry blocking, PBMC CCR8+ CD4+ cells; competitor PE-AB12 (its MFI is read)
# Description: For blocking studies, 100 μL of the cell suspension were incubated with 10 μg purified isotype control, AB1, AB2, AB3, AB4, AB5, AB8, AB9, AB10, AB11, AB12, AB13, AB14, AB15, and Commercial ABI antibodies, or isotype control, as blocking agents. […]
Known MFI of a selection of binders

>>> measured("AB2 (antibody, V domains shown, Hybridoma monoclonal; also called antibody 2; clone 2) VH: QVQLKESGPGLVKPSETLSLTCTVSGFSLTSYHISWVRQPPGKGLEWMGVIWGDGSKTYNSALKSRLSISRDTSKSQVFLKMRSLKTEDTATYYCARGGDSGFAYWGQGTLVTVSS VL: DIQMTQSPASLSASLEEIVTITCQASQDIGNWLSWYQQKPGKSPQLLIYGTTNLADGVPSRFSGSRSGTQYSLKISRLQVEDIGIYYCLQAYSVPLTFGSGTKLEIK")
1070

Next binder, MFI to be filled in.
Respond only with MFI recorded for AB1 (antibody, V domains shown, Hybridoma monoclonal (mice or rats immunised); Used purified and PE-conjugated; also called antibody 1; clone 1) VH: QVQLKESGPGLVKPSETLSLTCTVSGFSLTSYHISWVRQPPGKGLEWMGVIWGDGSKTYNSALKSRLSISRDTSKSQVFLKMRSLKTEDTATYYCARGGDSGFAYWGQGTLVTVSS VL: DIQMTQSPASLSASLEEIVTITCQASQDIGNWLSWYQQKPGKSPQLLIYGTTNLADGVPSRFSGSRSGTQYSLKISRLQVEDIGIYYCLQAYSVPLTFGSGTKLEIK
1040
